Test system: lymphocyte progenitors (LymP)
Assay: MLTA, LymP: concentration-response and QSP model fit
Assay type: cell-based, human
Conditions: Homo sapiens, Lymphocyte; QSP model parameter, sheet EC50_parameters; LymP
attribute measured: EC50 (nM)
Please give a number only; it is taken to be in nM.

Hello, I am looking for reported EC50 with lymphocyte progenitors (LymP) for `CC(C)C[C@H](NC(=O)[C@H](Cc1ccccc1)NC(=O)c1cnccn1)B(O)O` . Could you help?
112

Form field: EC50 recorded for `Cc1sc2c(c1C)C(c1ccc(Cl)cc1)=N[C@@H](CC(=O)Nc1ccc(O)cc1)c1nnc(C)n1-2` with lymphocyte progenitors (LymP) (enter value)
241

Give lymphocyte progenitors (LymP) EC50 for Nc1cccc2c1CN(C1CCC(=O)NC1=O)C2=O (stereo not shown) [Lenalidomide]
26.7

Identify the measured EC50 of `Nc1ccn([C@@H]2O[C@H](CO)[C@@H](O)[C@@H]2O)c(=O)n1` for lymphocyte progenitors (LymP).
69.7

====

Test system: MK cells (MK-lin)
Experiment: MLTA, MK: concentration-response and QSP model fit
Format: cell-based, human
Conditions: Homo sapiens, 144 h; dose 0.2 nM, 6 days, normalized to vehicle control; read-out: MK normalized cell count
attribute measured: activity at 0.0002 µM (%)
Quick note: give the figure in %, leave out the unit.

Item under review: CN(C)C(=O)c1cc2cnc(Nc3ccc(N4CCNCC4)cn3)nc2n1C1CCCC1 [ribociclib] . Reported activity at 0.0002 µM?
102

Returns the measured activity at 0.0002 µM for the input molecule. Input: CCc1cnn2c(NCc3ccc[n+]([O-])c3)cc(N3CCCC[C@H]3CCO)nc12 [dinaciclib]
90.3

Which value of activity at 0.0002 µM has been reported for O=C1CCC(N2C(=O)c3ccccc3C2=O)C(=O)N1 (centres unmarked) [thalidomide] in the records?
97.8

Request the reported activity at 0.0002 µM associated with CC(=O)c1c(C)c2cnc(Nc3ccc(N4CCNCC4)cn3)nc2n(C2CCCC2)c1=O [palbociclib]
86

Would you mind telling me what activity at 0.0002 µM value was observed for CC(=O)O[C@H]1C(=O)[C@@]2(C)[C@H]([C@H](OC(=O)c3ccccc3)[C@]3(O)C[C@H](OC(=O)[C@H](O)[C@@H](NC(=O)c4ccccc4)c4ccccc4)C(C)=C1C3(C)C)[C@]1(OC(C)=O)CO[C@@H]1C[C@@H]2O [paclitaxel] ?
108

====

Test system: monocytes (monocyte-lin)
Experiment: MLTA, Mono: concentration-response and QSP model fit
Format: cell-based, human
Settings: Homo sapiens, Monocyte, 144 h; dose 5 nM, 6 days, normalized to vehicle control; read-out: Mon normalized cell count
attribute measured: activity at 0.005 µM (%)
The reply should contain only the number, in %.

Notebook entry, monocytes (monocyte-lin) assay: activity at 0.005 µM of CC(=O)O[C@H]1C(=O)[C@@]2(C)[C@H]([C@H](OC(=O)c3ccccc3)[C@]3(O)C[C@H](OC(=O)[C@H](O)[C@@H](NC(=O)c4ccccc4)c4ccccc4)C(C)=C1C3(C)C)[C@]1(OC(C)=O)CO[C@@H]1C[C@@H]2O [paclitaxel] = ?
77

Which measured activity at 0.005 µM belongs to CS(=O)(=O)N1CCN(Cc2cc3nc(-c4cccc5[nH]ncc45)nc(N4CCOCC4)c3s2)CC1 [pictilisib] , tested on monocytes (monocyte-lin)?
79.5

Can you look up activity at 0.005 µM on monocytes (monocyte-lin) for CCc1cnn2c(NCc3ccc[n+]([O-])c3)cc(N3CCCC[C@H]3CCO)nc12 [dinaciclib] ?
69.5

So what activity at 0.005 µM did CC(=O)O[C@@]12CO[C@@H]1C[C@H](O)[C@@]1(C)C(=O)[C@H](O)C3=C(C)[C@@H](OC(=O)[C@H](O)[C@@H](NC(=O)OC(C)(C)C)c4ccccc4)C[C@@](O)([C@@H](OC(=O)c4ccccc4)[C@H]21)C3(C)C [docetaxel] get with monocytes (monocyte-lin)?
2.6

Record lookup: for monocytes (monocyte-lin), what activity at 0.005 µM belongs to O=C1CCC(N2C(=O)c3ccccc3C2=O)C(=O)N1 (centres unmarked) [thalidomide] ?
89.4

Given the entry CCN1CCN(Cc2ccc(Nc3ncc(F)c(-c4cc(F)c5nc(C)n(C(C)C)c5c4)n3)nc2)CC1 [abemaciclib] , what activity at 0.005 µM was observed with monocytes (monocyte-lin)?
87

monocytes (monocyte-lin) / activity at 0.005 µM / CN(C)C(=O)c1cc2cnc(Nc3ccc(N4CCNCC4)cn3)nc2n1C1CCCC1 [ribociclib] : value?
92.1

Please state recorded activity at 0.005 µM (tested on monocytes (monocyte-lin)) of CC(=O)c1c(C)c2cnc(Nc3ccc(N4CCNCC4)cn3)nc2n(C2CCCC2)c1=O [palbociclib]
89.9
